B1: OR4K15 (parent)
chain: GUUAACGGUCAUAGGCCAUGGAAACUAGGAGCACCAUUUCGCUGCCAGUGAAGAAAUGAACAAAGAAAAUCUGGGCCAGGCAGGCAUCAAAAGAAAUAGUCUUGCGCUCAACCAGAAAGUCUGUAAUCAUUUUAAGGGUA

Variants of: B1
Assay: self-cleavage, relative activity (ratio to wild type); higher = more cleavage; in vitro, sequencing; the parent is a self-cleaving ribozyme
quantity: self-cleavage
Give the value as a plain number.

Example cases with answers are listed next.
The value of self-cleavage measured for the variant GUUAACGGUCAUAGGCCAUGGAAACUAGGAGCACCAUUCCGCUGCCAGUGAAGAAAUGAACAAAGAAAAUCUGGGCCAGGCAGGCAUCAAAAGAAAUAGUCUUGCGCUCAACCAGAAAGUCUGUAAUCUUUUUAAGGGUA [U39C A129U] turned out to be 1.16

The value of self-cleavage measured for the variant GUUAACGGUCAUAGGCCAUGGAAACUAGGAGCACCAUUUCGCUGCCAGCGAAGAAAUGAACAAAGAAAAUCUGGGCCAGGCAGGCAUCAAAAGAAAUAGUCUUGCGCUCAACCAGAAAGUCUGUAAUCAUUUUAAGGGUG [U49C A140G] turned out to be 2.12

The value of self-cleavage measured for the variant GUUAACGGUCAUAGGCCAUGGAAACUAGGAGCACCAUUUCGCUGCCAGUGAAGAAAUGGACAAAGAAAAUCUGGGCCAGGCAGGCAUCAAAAGAAAUAGUCUUGCGCUCAACCAGAAAGUCUGUAAUCAUUUUAAGGGAA [A59G U139A] turned out to be 2.02

Next:
The value of self-cleavage measured for the variant GUUAACGGUCAUAGGCCAUGGAACCUAGGAGCACCAUUUCGCUGCCGGUGAAGAAAUGAACAAAGAAAAUCUGGGCCAGGCAGGCAUCAAAAGAAAUAGUCUUGCGCUCAACCAGAAAGUCUGUAAUCAUUUUAAGGGUA [A24C A47G] turned out to be 1.46

The value of self-cleavage measured for the variant GUUAACGGUCAUAGGCCAUGGAAACUAGGAGCACCAUUUCGCCGCCAGUGAAGAAAUGAACAAAGAAAAUCUGGGCCAGGCAGGCAUCAAAAGAAAUAGUCAUGCGCUCAACCAGAAAGUCUGUAAUCAUUUUAAGGGUA [U43C U102A] turned out to be 1

The value of self-cleavage measured for the variant GUUAACGGUCAUAGGCCAUGGAAAUUAGGAGCACCAUUUCGCUGCCAGUGAAGAAACGAACAAAGAAAAUCUGGGCCAGGCAGGCAUCAAAAGAAAUAGUCUUGCGCUCAACCAGAAAGUCUGUAAUCAUUUUAAGGGUA [C25U U57C] turned out to be 1.42

The value of self-cleavage measured for the variant GUUAACGGUCAUAGGCCAUGGAAACCAGGAGCACCAUUUCGCUGCCAGUGAAGAAAUGGACAAAGAAAAUCUGGGCCAGGCAGGCAUCAAAAGAAAUAGUCUUGCGCUCAACCAGAAAGUCUGUAAUCAUUUUAAGGGUA [U26C A59G] turned out to be 0.96

The value of self-cleavage measured for the variant GUUAACGGUCAUAGGCCAUGGAAACUAGGAGCACCAUUUCGCUGCCAGUGAAGAAAUGACCAAAGAAAAUCUGGGCCAGGCAGGCAUCAAAAGAGAUAGUCUUGCGCUCAACCAGAAAGUCUGUAAUCAUUUUAAGGGUA [A60C A95G] turned out to be 1.47

The value of self-cleavage measured for the variant GUUAACGGUCAUAGGCCAUGGAAACUAGGAGCACCAUUUCGCUGCCAGUGAAGAAAUGAACAAGGAAAAUCUGGGCCAGGCAGGCAUCAAAAGAAAUAGUCUUGCGCUCCACCAGAAAGUCUGUAAUCAUUUUAAGGGUA [A64G A110C] turned out to be 0.36

Value source: the RNAGym collection of RNA variant scans (doi:10.7554/elife.90254)
